The measured values listed here are drawn from PubChem BioAssay AID1852.

# ASSAY_PROTOCOL: TNF-a-driven NF-kB reporter inhibitors, primary screen, selectivity assay for NOD1/NOD2 signaling inhibitor project, cell-based, HEK293T NF-kB-Luc, luminescence (AID 1852)
# MEASUREMENT_CONDITIONS: TNF-a induced, 14 h, at 4 µM, active compounds read high
The campaign covered roughly 2,500 compounds. About 1,100 (44%) were called active. The set was probably picked from earlier hits. Some of the results follow.
QUANTITY_MEASURED: inhibition

Look at each compound and report its inhibition.
1. Cc1cc(C(=O)CSc2nc3ccccc3c(=O)n2C)c(C)n1Cc1ccc2c(c1)OCO2
2. O=c1cc(CSc2nnc(-c3cccs3)n2Cc2ccccc2)nc2sc3ccccc3n12
3. COc1cc(C)ccc1OCCCOc1ccccc1Cl
4. CCSc1nsc(NC(=O)Nc2cccc(F)c2)n1
5. Cc1cc(C(=O)CN2C(=O)c3ccccc3S2(=O)=O)c(C)n1CC1CCCO1 (stereo not given)
6. O=S(=O)(NCC1CCCO1)c1ccc(-c2ccc(S(=O)(=O)NCC3CCCO3)cc2)cc1 (stereo not given)

A:
["69.5% (active)", "88.7% (active)", "90.6% (active)", "46.9% (inactive)", "96.8% (active)", "34.8% (inactive)"]

For each of the compounds below, note its inhibition.
1. C/C(=N\NC(=O)c1cc(C2CC2)nc2ccccc12)c1ccc(O)cc1O
2. COc1ccc(Nc2nc(C(=O)N3CCc4ccccc4C3)cs2)cc1
3. CCn1c(SCc2nc3scc(-c4ccccc4)c3c(=O)[nH]2)nnc1-c1cccs1
4. C/C(=N\NC(=O)c1c(C)nc2ccccn12)c1ccc(O)cc1O

A:
["66.6% (active)", "20.3% (inactive)", "1.6% (inactive)", "69.2% (active)"]
